Where these numbers come from: the Biogen ADME set (Fang et al. 2023)

EXPERIMENTAL READOUT: MDR1-MDCK efflux ratio

> print(dat)
                                   compound  recorded.result
1       Cn1cc(CCNC(=O)N2CCCc3c(F)cccc32)cn1             1.71
2     Cc1nc2cc(-c3nccn3C)nn2c(NCCCN(C)C)c1C             67.6
3  Cn1cc(C(=O)NCCc2c[nH]c3ccccc23)c(-c2cccnc2)n1               29

1: Clc1cccc(CNc2nc(C3CC3)no2)c1
2: CC(C)c1nsc(N2CCC(Nc3cccnc3)CC2)n1
3: Cn1cc(NC(=O)c2cnn3cccnc23)c(C2CCCCC2)n1
Q) Rank the items in ascending order with respect to MDR1-MDCK efflux ratio. A ranking is expressed here by listing the labels in the requested order.
A) 1, 2, 3
(1: 0.476, 2: 0.816, 3: 1.23)
